- Tested on: MS2 coat protein
- METHOD NOTES: apparent KD of MS2 coat protein; designed switch direction (-1 OFF switch, 1 ON switch): -1; higher = weaker reporter binding
- MEASUREMENT CONDITIONS: input ligand: FMN 200 uM
apparent KD of MS2 coat protein vs 70 nM: at or above is class 1, below is class 0.

Example entries and their recorded answers appear below.
QUERY: // inclusive: apparent KD of MS2 coat protein at least 70 nM? input: CCUCUACAUGAGGAUCACCCAUGUGAGGAUAUCAGUGCAAAAGGCACGUAAUAAAUCGUGAGAAGGCACAUGGG [EX1 A.15] (Eterna round: R97, puzzle: Exclusion 1)
RESULT: class 0

QUERY: // inclusive: apparent KD of MS2 coat protein at least 70 nM? input: UUUUACAAGCUUAGAUCCUACAUGAGGAUCACCCAUGUGGUCCGGUGACGUGAGUCACCGGACUAAGCUCGUCUUGU [JL TOV1 3.71] (Eterna round: R97, puzzle: Sensor, turn-off variant 1)
RESULT: class 1

QUERY: // inclusive: apparent KD of MS2 coat protein at least 70 nM? input: ACUCUACAUGAGGAUCACCCAUGUGAGGAUAUCAAAGCCAGAGCGGAUCUCUGGUCCAUGAGAAGGUGCAUGGU [ElNandoxlusion 3 - Jieux - Exclusion 1] (Eterna round: R97, puzzle: Exclusion 1)
RESULT: class 1

New cases:
QUERY: // inclusive: apparent KD of MS2 coat protein at least 70 nM? input: UUAAAUCAUGUAGGAUAUGCUUUGCAAAGCGAGGCAGAAGGACAUGAGGAUCACCCAUGUGCUAGCGUCCGAGAACGGAUGCAA [Mat - Exclusion NG 1 - Mod of JL - D64] (Eterna round: R96, puzzle: Exclusion NG 1)
RESULT: class 1

QUERY: // inclusive: apparent KD of MS2 coat protein at least 70 nM? input: CAGUACUGAGGAUAUACAUGAGGAUCACCCAUGUUCCAAGGCUAGGAUACUAGCAAAGGUAGAAGGCAGUACUG [Mat - Exclusion 3 - Eli Mod - D26] (Eterna round: R97, puzzle: Exclusion 3)
RESULT: class 1

QUERY: // inclusive: apparent KD of MS2 coat protein at least 70 nM? input: UUUUGACAAGCGAGAUCCUACAUGAGGAUCACCCAUGUAGACCAUGGUUUCCAUGGUCUUUUUGCUCGUCUUGUGUG [jl TITIN mod 5] (Eterna round: R97, puzzle: Sensor, turn-off variant 1)
RESULT: class 0

---

- Test system: MS2 coat protein
- METHOD NOTES: apparent KD of MS2 coat protein; designed switch direction (-1 OFF switch, 1 ON switch): -1; higher = weaker reporter binding
- MEASUREMENT CONDITIONS: input ligand: FMN 200 uM
REPORTED ENDPOINT: apparent KD of MS2 coat protein
Write the quantity with the unit trailing the number.

QUERY: Sample CAGUACUGAGGAUAUACAUGAGGAUCACCCAUGUGUUCCAGCUAGGAAACUAGCAAGUGUAGAAGGCAGUACUG [Salish 065 m7] (Eterna round: R97, puzzle: Exclusion 3) — what was its apparent KD of MS2 coat protein?
RESULT: 1090 nM

QUERY: Sample AAAUAGCAUGAGGAUAUUGAACUGUAUAUAGUACGAGAAGGCAUGACAUGAGGAUCACCCAUGUUUUGUUGGGA [EX6 #3] (Eterna round: R97, puzzle: Exclusion 6) — what was its apparent KD of MS2 coat protein?
RESULT: 114 nM

QUERY: Sample AUAAUAUAUGUAGGAUAUCUGCACGAUUAGUGCAGAGAAGGACAUGAGGAUCACCCAUGUAAUUAAGAUCAAUUAUUAAAUUAU [ENG1/4-B1] (Eterna round: R96, puzzle: Exclusion NG 1) — what was its apparent KD of MS2 coat protein?
RESULT: 84.3 nM

QUERY: Sample UGUGCAACAGGAUAUAUGUGGCGUCCGUGAGGACGAAGGUUACAUGAGGAUCACCCAUGUAGAAGGGUUGUACU [Mat - Exclusion 2 - JL Mod - D24] (Eterna round: R97, puzzle: Exclusion 2) — what was its apparent KD of MS2 coat protein?
RESULT: 218 nM

Alright, here's another sequence for you.
QUERY: Sample ACAUGAGGAUCACCCAUGUAAUCAUAAUGGCUGAUGUAGAGUCAGGAUAUGUGUGGCUAACAAUCGCAGAAGGGACAAGACUGG [Deportation 32 - Jieux - Exclusion NG 3] (Eterna round: R96, puzzle: Exclusion NG 3) — what was its apparent KD of MS2 coat protein?
RESULT: 31.4 nM

---

- System: K4 kissing-loop RNA reporter
- METHOD NOTES: apparent KD of K4 kissing-loop reporter; higher = weaker reporter binding
- MEASUREMENT CONDITIONS: Eterna round: R107; input ligand: none
apparent KD of K4 kissing-loop reporter vs 200 nM: at or above is label 1, below is label 0.

Example entries and their recorded answers appear below.
QUERY: // inclusive: apparent KD of K4 kissing-loop reporter at least 200 nM? input: AAAACUCCGGGUAGUGAUGUUACCUAGGAUACCAGUAUCGCAACAUACCCUUGGCAGCCUCUUCCUGCUGGCGUCGCUUGGCCUA [theeternabot_exclusion_KL_Theo_A_42]
RESULT: label 0

QUERY: // inclusive: apparent KD of K4 kissing-loop reporter at least 200 nM? input: CGCAGUGAUGUUGCUAUUAUUCUUGAUUAACGAGGACCGGUACGGCCGCCACUCGAUUUCUAUCUGAUCCAGUGUUUUGUUGAGU [#22 K4 Tryptophan A Exclusion]
RESULT: label 1

QUERY: // inclusive: apparent KD of K4 kissing-loop reporter at least 200 nM? input: AGGCGGCAAGAUUGAUUGGAAAGUAAUCGACGAGGACCGGUACGGCCGCCACUCGAACACCAGUGAUGUUGGUCUGGCUUAAGCC [Exclusion Tryptophan A GF 20]
RESULT: label 1

QUERY: // inclusive: apparent KD of K4 kissing-loop reporter at least 200 nM? input: UGAUACCAGACGGCCGCCACUCCCGUAAGUCAAAGACUUACCAAGAGAAUCGUCCAGUGAUGUUGGAGGACCGGGUCUGGUAUCU [FiskerMod 8 - Jieux - Exclusion - Tryptophan B]
RESULT: label 1

New cases:
QUERY: // inclusive: apparent KD of K4 kissing-loop reporter at least 200 nM? input: AAACAUUGGUCUGAUACCAGUUAGACCGAUAAGGUCAAAACUGGAGUGAUGUUCCCAAAUAACCCUUGGCAGCAGACCGAUGAAA [MAT - Same State Theophlline B - Mod of Eli - D10]
RESULT: label 1

---

Entries annotated with measured apparent KD of MS2 coat protein
- System: MS2 coat protein
- METHOD NOTES: apparent KD of MS2 coat protein; higher = weaker reporter binding
- MEASUREMENT CONDITIONS: Eterna round: R107; input ligand: none
Entry rule: numbers only, all in nM.

QUERY: Sample UUUCUUUUCUUUCUUUCCUUUCAAACCGAAGGAGCGGGAACAAACCCAGGUAGGUCGCGGUGUGACAUGAGGAUCACCCAUGUGU [Exclusion - Arginine] — what was its apparent KD of MS2 coat protein?
RESULT: 78

New cases:
QUERY: Sample AAUCGGGAUGGUCAAGGGUAUGCUAUAGAUACCAGUGCAGAGAAACACCCUUGGCAGCUGUGGAACAUGAGGAUCACCCAUGUAG [Theo A Ex t4] — what was its apparent KD of MS2 coat protein?
RESULT: 11.2

QUERY: Sample GGGUACAUCGCGGCCGCCACUCAUGUAAAUGCAUGAGGAACACCCAUGCCGAUGGAGACAUCGGAGAGGACCGGGUGAUGUACCG — what was its apparent KD of MS2 coat protein?
RESULT: 110

QUERY: Sample UUAUUUAUAGGCGAUACCAGCCGAAUGGCCGCAAAUCCUAACAUGAGGAUCACCCAUGUCGGCCCUUGGCAGCGCCUAUGGGUUU [XTheo B #27] — what was its apparent KD of MS2 coat protein?
RESULT: 94.7

QUERY: Sample GUAUUAAGAAAACUUGAUACAGUGGGUGAACGAGGACCGGUACGGCCGCCACUCGGACAUGAGGAUCACCCAUGUCCAUGUGAAA [AstrosExyTryA#11] — what was its apparent KD of MS2 coat protein?
RESULT: 19.1

QUERY: Sample ACCUACACGGAGACGUGUAGGAGUAAUGAUACCAGCAUGGAGACAUGCCCUUGGCAGCGUUACAUGAGGAUCACCCAUGUAGUGC [ETHA #5] — what was its apparent KD of MS2 coat protein?
RESULT: 10.7

---

- Tested on: K4 kissing-loop RNA reporter;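 further: bound reporter read as fluorescence of individual clusters on recovered sequencing chips by microscopy, with normalized cluster intensities fitted with a binding model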
- METHOD NOTES: apparent KD of K4 kissing-loop reporter; higher = weaker reporter binding
- MEASUREMENT CONDITIONS: Eterna round: R107; input ligand: none
apparent KD of K4 kissing-loop reporter vs 0.3 µM: at or above is true, below is false.

Example entries and their recorded answers appear below.
QUERY: // inclusive: apparent KD of K4 kissing-loop reporter at least 0.3 µM? input: UAUUAAUAAUUAUUCUAGUGAUGUUAGAUACGAGGACCGGUACGGCCGCCACUCGCUUAUUGGUUUAUAAAUUUUAUAUUAUUUA [JR_SSTryptoA_Sub017]
RESULT: false

QUERY: // inclusive: apparent KD of K4 kissing-loop reporter at least 0.3 µM? input: UGGGAUGUUAAAGGAUAUAGCAAGUGAUAUAAGAAAGUGAGUGAUGUUGAUGUAGGUGAUGAUAUGUUAGAAGGUUAACAAAACG [abcdefg]
RESULT: true

QUERY: // inclusive: apparent KD of K4 kissing-loop reporter at least 0.3 µM? input: AGAUCUAAGCUGAGUUAGUCACCAUAAAGCAAGGAUAUUCCACGAAGAAGAAGGUGCAUCAUCCAUAGUGAUGUUAUGGCACGGG [theeternabot_sameState_KL_FMN_A_7]
RESULT: true

New cases:
QUERY: // inclusive: apparent KD of K4 kissing-loop reporter at least 0.3 µM? input: ACGGAGUGAUGUUCCGGCCUCCCAGCAGAUACCAGCAGUCGCGAUUGCCCUUGGCAGCUGUCCGCGGCAUCCACUUGUAGCGGUA [theeternabot_exclusion_KL_Theo_A_12]
RESULT: false

QUERY: // inclusive: apparent KD of K4 kissing-loop reporter at least 0.3 µM? input: AGUGAUGUGGGAAGGAGCGCUAGUACACUUCAGUGAUGUUGAAGUGAUGAAUUAGUGUAUUGGCAGGUAGGUCGCCUAGAUGUUA [KL-XARG-B14]
RESULT: false

QUERY: // inclusive: apparent KD of K4 kissing-loop reporter at least 0.3 µM? input: UAGUCCUAGUGAUGGUUAUCACGUGGUGGGCGAGGACCGGUACGGCCGCCACUCGACUUUGCAGUGAUGUUGCAAACCGGACAAU [Exclusion - Tryptophan A (Freestyle 18)]
RESULT: false

QUERY: // inclusive: apparent KD of K4 kissing-loop reporter at least 0.3 µM? input: AGAGUUAAUUAGUCUUUUUUAACAUUAAGUCAGGAUAUCGUAUAUUCGAGAAGGGACACAUGCUAGUGAUGUUAGCUAUUUCUCA [JR_ExcFMNA_Sub018]
RESULT: false

QUERY: // inclusive: apparent KD of K4 kissing-loop reporter at least 0.3 µM? input: CCCUCACGAGUGAUGUUCGUAGGGUACAGUCAGGAUAUCAUGCGGUUGAGAAGGGACAGAAAGGGCGGCCACGGGUUGCUCAUUU [Issogeso]
RESULT: true
